system: rice (Oryza sativa); assay: Test C flooded paddy test; type: in vivo; conditions: Flood, 250 g ai/ha; 0 is no effect, 100 is complete control
measured_property: Plant response rating (scale of 0 to 100), Rice
Provide a numeric answer; units are not to be included.

Worked cases, Plant response rating (scale of 0 to 100), Rice given:
O=C1NCC(c2cccc(OC(F)(F)C(F)F)c2)C1C(=O)Nc1cccc(F)c1F (racemic)    70
O=C1NCC(c2ccc(F)cc2F)C1C(=O)Nc1cccc(F)c1F (stereo not shown)    0
O=C1NCC(c2ccoc2)C1C(=O)Nc1ccccc1F (racemic)    0

Here's the next entry for you.
Prompt line: I am curious: what Plant response rating (scale of 0 to 100), Rice value has been reported for CN1CC(c2cccc(C(F)(F)F)c2)C(C(=O)Nc2ccccc2C(F)(F)F)C1=O (stereo not shown) ?
Response line: 25

---

Recorded Ryegrass, Italian plant response rating for the following molecules
tested on: ryegrass, Italian (Italian ryegrass, Lolium multiflorum); assay: Test A postemergence; type: in vivo; settings: 125 g ai/ha, postemergence; visual injury rating on 0 to 100 scale (0 no effect, 100 complete control), approx. 10 d

Cc1cc(C2CN(C)C(=O)C2C(=O)Nc2ccccc2C(F)(F)F)ccc1F (stereo not shown)    30
O=C(Nc1ccccc1F)C1C(=O)N(CC=CBr)CC1c1cccc(C(F)(F)F)c1 (stereo not shown)    0

Prompt line: I am curious: what Ryegrass, Italian plant response rating value has been reported for COc1cccc(NC(=O)C2C(=O)NCC2c2cccc(OC(F)F)c2)c1F (stereo not shown) ?
Response line: 0

Prompt line: Next up: COCc1cccc(C2CNC(=O)C2C(=O)Nc2ccc(F)cc2F)c1 (stereo not shown)
Response line: 0

Prompt line: Next up: Cc1cc(C2CNC(=O)C2C(=O)Nc2ccc(F)c(F)c2F)ccc1F (stereo not shown)
Response line: 30

Prompt line: Next up: CC(C)c1ccc(C2CNC(=O)C2C(=O)Nc2ccccc2F)cc1 (stereo not shown)
Response line: 0

Prompt line: Next up: O=C(Nc1cccc(F)c1F)C1C(=O)N(CC=CBr)CC1c1cccc(C(F)(F)F)c1 (stereo not shown)
Response line: 0

Prompt line: Next up: CC(=O)Oc1cccc(C2CNC(=O)C2C(=O)Nc2cccc(F)c2F)c1 (stereo not shown)
Response line: 0

Prompt line: Next up: C=C(C)CN1CC(c2cccc(C(F)(F)F)c2)C(C(=O)Nc2ccccc2F)C1=O (stereo not shown)
Response line: 0

Prompt line: Next up: Cc1ccc(C2CNC(=O)C2C(=O)Nc2ccc(F)cc2F)c(F)c1 (racemic)
Response line: 0

---

Recorded pest or weed control at 125 g/ha for the following compounds
system: blackgrass (Alopecurus myosuroides); test: Test A postemergence; assay type: in vivo; details: Alopecurus myosuroides, post-emergence, 240 h, 125 g ai/ha, postemergence, visual injury rating after approximately 10 d; read-out: Blackgrass plant response rating (0 to 100 scale, 0 no effect, 100 complete control)

Worked cases, pest or weed control at 125 g/ha given:
COc1c(F)ccc([C@H]2CN(C)C(=O)[C@@H]2C(=O)Nc2ccc(F)cc2F)c1Cl    0%
O=C1NC[C@H](c2cncc(C(F)(F)F)c2)[C@H]1C(=O)Nc1ccccc1F    0%
Cc1c(F)ccc([C@H]2CN(C)C(=O)[C@@H]2C(=O)Nc2ccccc2F)c1F    40%

Prompt line: I am curious: what pest or weed control at 125 g/ha value has been reported for CSc1ccccc1NC(=O)[C@H]1C(=O)N(C)CC[C@@H]1c1cccc(OC(F)(F)F)c1 ?
Response line: 0%

Prompt line: Next up: CN1C[C@H](c2cccc(C3CC3)c2)[C@@H](C(=O)Nc2ccccc2F)C1=O
Response line: 50%

Prompt line: Next up: CN1CC[C@H](c2ccc3c(c2)OC(F)(F)O3)[C@@H](C(=O)Nc2ccc(F)c(F)c2F)C1=O
Response line: 80%

Prompt line: Next up: Cc1c(F)ccc([C@H]2CN(C)C(=O)[C@@H]2C(=O)Nc2ccccc2C(F)(F)F)c1F
Response line: 30%

Prompt line: Next up: CC(C)c1cccc([C@H]2CN(C)C(=O)[C@@H]2C(=O)Nc2ccc(F)cc2F)c1
Response line: 70%

The measurements presented in this section are drawn from patent US12077503B2.
